Tested on: four Gardnerella strains (Gv_9, Gv_11, Gv_17, Gv_23)
test_name: CFU reduction averaged across the four Gardnerella strains, with activity ranks
Assay type: cell-based
assay_context: rank 1-91, based on the data of Table 5B
metric: activity rank of all endolysins
Answer using only a numeral; do not append any unit.

Ask: Need activity rank of all endolysins of H3B3: natural Gardnerella prophage endolysin from strain Gv18-4 (protein, EL3_strain_Gv18-4) MSKKGIDVSVWQGDIDFNSVKASGVEFVIIRAGYGIGHKDKWFEENYRKAKTAGLDVGSYWYSYASSAGEASEEAQSCVNILSGKSFEYPIYFDLEEKSQLNRGRDFCDSLITSFCNKLEACGYYAGFYTSLSVANNLVSSHVRDRYALWIAQWNTHCSYQGSYGLWQYSSSGSVNGIAGRVDMDYAYVDYPSVIKNAGLNGYQNGGSYTAPQTSSIDEVAREVINGDWGNGNDRKNRLISAGYDYASVQNKVNELLGVKAYRKSVDELAREVIRGTWGNGSMRKHRLTQAGYDYDAVQKRVNELL , thanks.
Result: 13
